Target: human tryptophan 2,3-dioxygenase (hTDO) (Homo sapiens, UniProt P48775)
Construct: His tag (N); purchased BPS Bioscience, San Diego, Calif., USA; host or cells: E. coli
Sequence (P48775 whole entry): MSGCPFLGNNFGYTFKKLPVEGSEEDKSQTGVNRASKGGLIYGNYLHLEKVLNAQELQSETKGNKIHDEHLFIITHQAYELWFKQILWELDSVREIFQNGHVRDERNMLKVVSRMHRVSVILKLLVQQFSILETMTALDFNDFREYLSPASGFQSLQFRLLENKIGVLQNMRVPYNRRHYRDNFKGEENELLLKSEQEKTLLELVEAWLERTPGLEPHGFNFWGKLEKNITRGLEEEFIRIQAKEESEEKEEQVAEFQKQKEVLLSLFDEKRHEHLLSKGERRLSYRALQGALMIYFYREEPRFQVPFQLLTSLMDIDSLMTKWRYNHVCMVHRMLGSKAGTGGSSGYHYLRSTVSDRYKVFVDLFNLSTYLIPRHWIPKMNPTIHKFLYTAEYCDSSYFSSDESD
Assay: In-vitro human tryptophan 2,3-dioxygenase (TDO) enzyme assay
Format: biochemical
Conditions: hTDO enzyme at 1.0 μM concentration
observation-type: inhibition at 1 µM

# compound, inhibition at 1 µM
records = [
    ("CC1=C(c2ccccc2)C(CC(=O)c2ccc(-c3ccc(-c4ccccc4)cc3)cc2)n2cncc21 (stereo not shown)", "≤ 50%"),
]

Data request: Can you look up the measured inhibition at 1 µM of CNC(=O)c1ccc(C(=O)CC2C(c3ccccc3)=C(C)c3cncn32)cc1 (stereo not shown) for me?
Data returned: ≥ 50%

Data request: Can you look up the measured inhibition at 1 µM of CC1=C(c2ccccc2)C(CC(O)C2CCN(C(=O)Nc3ccc(F)c(Cl)c3)CC2)n2cncc21 (stereo not shown) for me?
Data returned: ≤ 50%

Data request: Can you look up the measured inhibition at 1 µM of CC1=C(c2ccccc2)C(CC(O)C2CCC(c3ccccc3)CC2)n2cncc21 (stereo not shown) for me?
Data returned: ≤ 50%

----------
Biological target: human tryptophan 2,3-dioxygenase (hTDO) (Homo sapiens, UniProt P48775)
Construct: His tag (N); purchased BPS Bioscience, San Diego, Calif., USA; host or cells: E. coli
Experiment: In-vitro human tryptophan 2,3-dioxygenase (TDO) enzyme assay
Format: biochemical
Settings: hTDO enzyme at 1.0 μM concentration
Measured inhibition at 1 µM values are reported for all entries that follow.

Below are worked cases with known answers.
# compound, inhibition at 1 µM
rows = [
    ("CC1=C(c2ccccc2)C(CC(=O)C2CCC(C(=O)N3CCC(=O)CC3)CC2)n2cncc21 (centres unmarked)", "≤ 50%"),
    ("CC1=C(c2ccccc2)C(CC(=O)c2ccc(Cl)cc2)n2cncc21 (centres unmarked)", "≥ 50%"),
    ("CC1=C(c2ccccc2)C(CC(=O)C2CCC(O)CC2)n2cncc21 (centres unmarked)", "≥ 50%"),
]

Data request: Can you look up the measured inhibition at 1 µM of CC1=C(c2ccccc2)C(CC(=O)c2ccc(-c3ccc(F)cc3)cc2)n2cncc21 (centres unmarked) for me?
Data returned: ≥ 50%

Data request: Can you look up the measured inhibition at 1 µM of CC1=C(c2ccccc2)C(CC(=O)c2ccc(C3CCCCC3)cc2)n2cncc21 (centres unmarked) for me?
Data returned: ≤ 50%

Data request: Can you look up the measured inhibition at 1 µM of CC1=C(c2ccccc2)C(CC(O)C2CCN(C(=O)c3cccnc3)CC2)n2cncc21 (centres unmarked) for me?
Data returned: ≤ 50%

Data request: Can you look up the measured inhibition at 1 µM of CC1=C(c2ccccc2)C(CC(O)C2CCN(C(=O)Cc3ccccc3)CC2)n2cncc21 (centres unmarked) for me?
Data returned: ≥ 50%

Data request: Can you look up the measured inhibition at 1 µM of CC1=C(c2ccccc2)C(CC(O)c2ccc(F)cc2)n2cncc21 (centres unmarked) for me?
Data returned: ≥ 50%

Data request: Can you look up the measured inhibition at 1 µM of CC1=C(c2ccccc2)C(CC(=O)C2CCC(C(=O)Nc3ccc(Cl)cc3C)CC2)n2cncc21 (centres unmarked) for me?
Data returned: ≥ 50%

Data request: Can you look up the measured inhibition at 1 µM of CC1=C(c2ccccc2)C(CC(O)C2CCN(C(=O)Nc3ccccn3)CC2)n2cncc21 (centres unmarked) for me?
Data returned: ≤ 50%

Data request: Can you look up the measured inhibition at 1 µM of CC1=C(c2ccccc2)C(CC(O)c2ccc(-c3ccccc3)cc2)n2cncc21 (centres unmarked) for me?
Data returned: ≥ 50%

Data request: Can you look up the measured inhibition at 1 µM of CC1=C(c2ccccc2)C(CC(=O)C2CCC(c3ccccc3)CC2)n2cncc21 (centres unmarked) for me?
Data returned: ≥ 50%

Data request: Can you look up the measured inhibition at 1 µM of CC1=C(c2ccccc2)C(CC(=O)c2cccc(Cl)c2)n2cncc21 (centres unmarked) for me?
Data returned: ≥ 50%

Data request: Can you look up the measured inhibition at 1 µM of CC1=C(c2ccccc2)C(CC(=O)C2CCC(C(=O)O)CC2)n2cncc21 (centres unmarked) for me?
Data returned: ≤ 50%

Data request: Can you look up the measured inhibition at 1 µM of CC1=C(c2ccccc2)C(CC(O)C2CCN(C(=O)OCc3ccccc3)CC2)n2cncc21 (centres unmarked) for me?
Data returned: ≥ 50%

Data request: Can you look up the measured inhibition at 1 µM of CC1=C(c2ccccc2)C(CC(=O)c2ccc(C)cc2)n2cncc21 (centres unmarked) for me?
Data returned: ≥ 50%

Data request: Can you look up the measured inhibition at 1 µM of CC1=C(c2ccccc2)C(CC(=O)C2CCN(C(=O)c3ccccc3)CC2)n2cncc21 (centres unmarked) for me?
Data returned: ≥ 50%

----------
Measured inhibition at 10 µM values are reported for all entries that follow.
Molecular target: human indoleamine 2,3-dioxygenase 1 (hIDO1) (Homo sapiens)
Construct: His tag (N); purchased BPS Bioscience, San Diego, Calif., USA; host or cells: E. coli
Sequence (P14902 whole entry): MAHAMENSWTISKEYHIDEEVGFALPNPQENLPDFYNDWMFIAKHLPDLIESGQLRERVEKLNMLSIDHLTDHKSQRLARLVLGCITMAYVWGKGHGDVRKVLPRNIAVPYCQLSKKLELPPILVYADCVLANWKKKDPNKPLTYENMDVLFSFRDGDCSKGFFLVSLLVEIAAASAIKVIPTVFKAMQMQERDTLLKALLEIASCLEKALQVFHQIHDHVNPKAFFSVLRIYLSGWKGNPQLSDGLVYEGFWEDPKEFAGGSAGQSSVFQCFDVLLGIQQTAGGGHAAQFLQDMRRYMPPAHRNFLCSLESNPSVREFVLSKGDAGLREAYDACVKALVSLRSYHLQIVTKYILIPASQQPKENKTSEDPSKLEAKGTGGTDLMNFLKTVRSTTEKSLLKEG
Assay: In-vitro human indoleamine 2,3-dioxygenase 1 (IDO1) enzyme assay
Assay type: biochemical
Conditions: hIDO1 enzyme at 10.0 μM concentration

Below are worked cases with known answers.
# compound, inhibition at 10 µM
records = [
    ("CC1=C(c2ccccc2)C(CC(O)C2CCN(Cc3ccccc3)CC2)n2cncc21 (stereo not drawn) [Example 141]", "≤ 50%"),
    ("CC1=C(c2ccccc2)C(CC(=O)C2CCC(C(=O)O)CC2)n2cncc21 (stereo not drawn) [Example 130]", "≤ 50%"),
]

Data request: Can you look up the measured inhibition at 10 µM of CC1=C(c2ccccc2)C(CC(O)c2ccc(-c3ccsc3)cc2)n2cncc21 (stereo not drawn) [Example 60] for me?
Data returned: ≥ 50%

----------
Target: human tryptophan 2,3-dioxygenase (hTDO) (Homo sapiens)
Construct: His tag (N); purchased BPS Bioscience, San Diego, Calif., USA; host or cells: E. coli
Assay: In-vitro human tryptophan 2,3-dioxygenase (TDO) enzyme assay
Format: biochemical
Details: hTDO enzyme at 1.0 μM concentration
Excerpt: In the in-vitro human tryptophan 2,3-dioxygenase (hTDO) enzyme assay for screening inhibitor compounds, hTDO with an N-terminal histidine tag expressed and purified from E. coli (BPS Bioscience, San Diego, Calif., USA) was used. All other materials were procured from Sigma-Aldrich, St. Louis, Mo., USA. […]
Measured inhibition at 1 µM values are reported for all entries that follow.

# molecule, result-value
rows = [
    ("CC1=C(c2ccccc2)C(C[C@H](O)C2CCC(C(=O)N3CCC(O)CC3)CC2)n2cncc21 (stereo partly shown) [Example 125]", "≤ 50%"),
    ("CC1=C(c2ccccc2)C(CC(O)C2CCN(S(=O)(=O)c3ccccc3)CC2)n2cncc21 (stereo not shown) [Example 145]", "≥ 50%"),
    ("CC1=C(c2ccccc2)C(CC(=O)C2CCN(Cc3ccccc3)CC2)n2cncc21 (stereo not shown) [Example 140]", "≤ 50%"),
    ("CC1=C(c2ccccc2)C(CC(=O)C2CCCN2S(=O)(=O)c2ccc(C)cc2)n2cncc21 (stereo not shown) [Example 113]", "≥ 50%"),
    ("CC1=C(c2ccccc2)C(CC(O)c2ccc(Br)cc2)n2cncc21 (stereo not shown) [Example 52]", "≥ 50%"),
    ("CC1=C(c2ccccc2)C(CC(=O)c2ccc(C(=O)Nc3cccnc3)cc2)n2cncc21 (stereo not shown) [Example 79]", "≥ 50%"),
    ("CC1=C(c2ccccc2)C(CC(O)C2CCC(O)CC2)n2cncc21 (stereo not shown) [Example 127]", "≥ 50%"),
    ("CCOC(=O)CCC(=O)CC1C(c2ccccc2)=C(C)c2cncn21 (stereo not shown) [Example 173]", "≤ 50%"),
]

Data request: Can you look up the measured inhibition at 1 µM of CC1=C(c2ccccc2)C(CC(=O)c2ccc(-c3ccc(C)s3)cc2)n2cncc21 (stereo not shown) [Example 64] for me?
Data returned: ≤ 50%

Data request: Can you look up the measured inhibition at 1 µM of CC1=C(c2ccccc2)C(CC(O)C2CCN(C(=O)C(C)C)CC2)n2cncc21 (stereo not shown) [Example 187] for me?
Data returned: ≤ 50%

Data request: Can you look up the measured inhibition at 1 µM of COC(=O)[C@H]1CC[C@@H]([C@@H](O)CC2C(c3ccccc3)=C(C)c3cncn32)CC1 (stereo partly shown) [Example 131] for me?
Data returned: ≥ 50%

Data request: Can you look up the measured inhibition at 1 µM of CC1=C(c2ccccc2)C(CC(=O)c2ccc(-c3cnc[nH]3)cc2)n2cncc21 (stereo not shown) [Example 67] for me?
Data returned: ≥ 50%

----------
Target: human indoleamine 2,3-dioxygenase 1 (hIDO1) (Homo sapiens)
Construct: His tag (N); purchased BPS Bioscience, San Diego, Calif., USA; host or cells: E. coli
Assay: In-vitro human indoleamine 2,3-dioxygenase 1 (IDO1) enzyme assay
Format: biochemical
Settings: hIDO1 enzyme at 1.0 μM concentration
observation-type: inhibition at 1 µM

# compound, result-value
data = [
    ("CC1=C(c2ccccc2)C(CC(O)[C@H]2CC[C@H](C(=O)N[C@H]3CC[C@H](O)CC3)CC2)n2cncc21 (stereo partly shown)", "≥ 50%"),
]

Data request: Can you look up the measured inhibition at 1 µM of CCOC(=O)CCC(=O)CC1C(c2ccccc2)=C(C)c2cncn21 (stereo not shown) for me?
Data returned: ≤ 50%

Data request: Can you look up the measured inhibition at 1 µM of CC1=C(c2ccccc2)C(CC(=O)c2ccc(-c3ccccc3F)cc2)n2cncc21 (stereo not shown) for me?
Data returned: ≥ 50%

Data request: Can you look up the measured inhibition at 1 µM of CC1=C(c2ccc(C)cc2)C(CC(=O)C2CCCCC2)n2cncc21 (stereo not shown) for me?
Data returned: ≤ 50%
